Values from BigSolDB 2.1

- conditions: in acetone, 298.15 K
measured.quantity: solubility (mole fraction)
A bare number is all that is needed in reply.

# input // returns reported solubility (mole fraction) for input CCC(C)n1ncn(-c2ccc(N3CCN(c4ccc(OC[C@H]5CO[C@](Cn6cncn6)(c6ccc(Cl)cc6Cl)O5)cc4)CC3)cc2)c1=O (mixture of isomers)
# output 0.000637

###

- conditions: in dichloromethane, 298.15 K
measured.quantity: solubility (mole fraction)
A bare number is all that is needed in reply.

# input // returns reported solubility (mole fraction) for input CCC(C)n1ncn(-c2ccc(N3CCN(c4ccc(OC[C@H]5CO[C@](Cn6cncn6)(c6ccc(Cl)cc6Cl)O5)cc4)CC3)cc2)c1=O (mixture of isomers)
# output 0.0327

###

- conditions: in n-propanol, 298.15 K
measured.quantity: solubility (mole fraction)
A bare number is all that is needed in reply.

# input // returns reported solubility (mole fraction) for input CCC(C)n1ncn(-c2ccc(N3CCN(c4ccc(OC[C@H]5CO[C@](Cn6cncn6)(c6ccc(Cl)cc6Cl)O5)cc4)CC3)cc2)c1=O (mixture of isomers)
# output 2.05e-05

###

- conditions: in n-butanol, 298.15 K
measured.quantity: solubility (mole fraction)
A bare number is all that is needed in reply.

# input // returns reported solubility (mole fraction) for input CCC(C)n1ncn(-c2ccc(N3CCN(c4ccc(OC[C@H]5CO[C@](Cn6cncn6)(c6ccc(Cl)cc6Cl)O5)cc4)CC3)cc2)c1=O (mixture of isomers)
# output 2.3e-05

###

- conditions: in acetonitrile, 298.15 K
measured.quantity: solubility (mole fraction)
A bare number is all that is needed in reply.

# input // returns reported solubility (mole fraction) for input CCC(C)n1ncn(-c2ccc(N3CCN(c4ccc(OC[C@H]5CO[C@](Cn6cncn6)(c6ccc(Cl)cc6Cl)O5)cc4)CC3)cc2)c1=O (mixture of isomers)
# output 7.95e-05

###

- conditions: in water, 298.15 K
measured.quantity: solubility (mole fraction)
A bare number is all that is needed in reply.

# input // returns reported solubility (mole fraction) for input CCC(C)n1ncn(-c2ccc(N3CCN(c4ccc(OC[C@H]5CO[C@](Cn6cncn6)(c6ccc(Cl)cc6Cl)O5)cc4)CC3)cc2)c1=O (mixture of isomers)
# output 2.43e-07

###

- conditions: in NMP, 298.15 K
measured.quantity: solubility (mole fraction)
A bare number is all that is needed in reply.

# input // returns reported solubility (mole fraction) for input CCC(C)n1ncn(-c2ccc(N3CCN(c4ccc(OC[C@H]5CO[C@](Cn6cncn6)(c6ccc(Cl)cc6Cl)O5)cc4)CC3)cc2)c1=O (mixture of isomers)
# output 0.022

###

- conditions: in isopropanol, 298.15 K
measured.quantity: solubility (mole fraction)

# input // returns reported solubility (mole fraction) for input CCC(C)n1ncn(-c2ccc(N3CCN(c4ccc(OC[C@H]5CO[C@](Cn6cncn6)(c6ccc(Cl)cc6Cl)O5)cc4)CC3)cc2)c1=O (mixture of isomers)
# output 2.14e-05

###

- conditions: in chloroform, 298.15 K
measured.quantity: solubility (mole fraction)
A bare number is all that is needed in reply.

# input // returns reported solubility (mole fraction) for input CCC(C)n1ncn(-c2ccc(N3CCN(c4ccc(OC[C@H]5CO[C@](Cn6cncn6)(c6ccc(Cl)cc6Cl)O5)cc4)CC3)cc2)c1=O (mixture of isomers)
# output 0.0504

###

- conditions: in THF, 298.15 K
measured.quantity: solubility (mole fraction)
A bare number is all that is needed in reply.

# input // returns reported solubility (mole fraction) for input CCC(C)n1ncn(-c2ccc(N3CCN(c4ccc(OC[C@H]5CO[C@](Cn6cncn6)(c6ccc(Cl)cc6Cl)O5)cc4)CC3)cc2)c1=O (mixture of isomers)
# output 0.00212
